molecular target: UniProtKB P01116; assay: Binding to KRAS by surface plasmon resonance (SPR), dissociation constant KD; settings: Single Cycle Kinetics
# label = bin(measured Kd), where bins are 1 (below 0.2 nM), 2 (0.2 nM to below 0.6 nM), 3 (0.6 nM or more)

Band assignment needed for CCO[C@@H]1C[C@H]2C(=O)OC3(CCC3)C(=O)N(C)[C@@H](C3CCCC3)C(=O)N(C)[C@H](C(=O)N(C)C)CC(=O)N(C)[C@@H](CC(C)C)C(=O)N[C@@H]([C@@H](C)CC)C(=O)N3CCC[C@H]3C(=O)N(C)[C@H]3C/C=C\CCN(C3=O)[C@@H](Cc3ccc(C(F)(F)F)cc3)C(=O)N(C)CC(=O)N[C@@H](CCc3ccc(C(F)(F)F)c(OC)c3)C(=O)N2C1 please.
3

Band assignment needed for CCC[C@H]1C(=O)N[C@@H]([C@@H](C)CC)C(=O)N(C)CC(=O)N(C)[C@H]2C/C=C\CCN(C2=O)[C@@H](Cc2ccc(C)cc2)C(=O)N(C)CC(=O)N[C@@H](CCc2ccc(C(F)(F)F)c(OC)c2)C(=O)N2CC[C@H](OC)[C@H]2C(=O)N(C)C2(CCC2)C(=O)N(C)[C@@H](C2CCCC2)C(=O)N(C)[C@H](C(=O)N(C)C)CC(=O)N1C please.
1

Band assignment needed for C#CC[C@H]1C(=O)N[C@@H]([C@@H](C)CC)C(=O)N(C2CC2)CC(=O)N(C)[C@H]2C/C=C\CCN(C2=O)[C@@H](Cc2ccc(C(F)(F)F)cc2)C(=O)N(C)CC(=O)N[C@@H](CCc2ccc(C(F)(F)F)c(Cl)c2)C(=O)N2C[C@H](OCC)C[C@H]2C(=O)N(C)C2(CCC2)C(=O)N(C)[C@@H](C2CCCC2)C(=O)N(C)[C@H](C(=O)N(C)C)CC(=O)N1C please.
1

Band assignment needed for CCC[C@H]1C(=O)N[C@@H]([C@@H](C)CC)C(=O)N2CCCC[C@H]2C(=O)N(C)[C@H]2C/C=C\CCN(C2=O)[C@@H](Cc2ccc(C)cc2)C(=O)N(C)CC(=O)N[C@@H](CCc2ccc(C(F)(F)F)c(OC)c2)C(=O)N2C[C@H](OCC)C[C@H]2C(=O)N(C)C2(CCC2)C(=O)N(C)[C@@H](C2CCCC2)C(=O)N(C)[C@H](C(=O)N(C)C)CC(=O)N1C please.
2

Band assignment needed for CCO[C@@H]1C[C@H]2C(=O)NC3(CC(C)(C)C3)C(=O)N(C)[C@@H](C3CCCC3)C(=O)N(C)[C@H](C(=O)N(C)CC)CC(=O)N(C)[C@@H]([C@H](C)OC)C(=O)N[C@@H]([C@@H](C)CC)C(=O)N(C3CC3)CC(=O)N(C)[C@H]3C/C=C\CCN(C3=O)[C@@H](Cc3ccc(C(F)(F)F)cc3)C(=O)N(C)CC(=O)N[C@@H](CCc3ccc(C(F)(F)F)c(OC)c3)C(=O)N2C1 please.
2

Band assignment needed for CCC[C@H]1C(=O)N[C@@H]([C@@H](C)CC)C(=O)N2CC[C@H]2C(=O)N(C)[C@H]2C/C(F)=C\CCN(C2=O)[C@@H](Cc2ccc(C)cc2)C(=O)N(C)CC(=O)N[C@@H](CCc2ccc(C(F)(F)F)c(OC)c2)C(=O)N2C[C@H](OCC)C[C@H]2C(=O)N(C)C2(CCC2)C(=O)N(C)[C@@H](C2CCCC2)C(=O)N(C)[C@H](C(=O)N(C)C)CC(=O)N1C please.
1

Band assignment needed for C#CCN1CC(=O)N(C)[C@H]2C/C=C\CCN(C2=O)[C@@H](Cc2ccc(C(F)F)cc2)C(=O)N(C)CC(=O)N[C@@H](CCc2cc(F)c(C(F)(F)F)c(F)c2)C(=O)N2C[C@H](OCC)C[C@H]2C(=O)N(C)C2(CCC2)C(=O)N(C)[C@@H](C(CC)CC)C(=O)N(C)[C@H](C(=O)N(C)C)CC(=O)N(C)[C@@H](COCCC)C(=O)N[C@@H]([C@@H](C)OC)C1=O please.
3

Band assignment needed for CCC[C@H]1C(=O)N[C@@H]([C@@H](C)CC)C(=O)N(C)CC(=O)N(C)[C@H]2C/C=C\CCN(C2=O)[C@@H](Cc2ccc(C)cc2)C(=O)N(C)CC(=O)N[C@@H](CCc2ccc(C(F)(F)F)c(Cl)c2)C(=O)N2CC3(CC3)C[C@H]2C(=O)NC2(CCC2)C(=O)N(C)[C@@H]([C@@H](C)CC)C(=O)N(C)[C@H](C(=O)N(C)C)CC(=O)N1C please.
2

Band assignment needed for CCC[C@H]1C(=O)N[C@@H]([C@@H](C)CC)C(=O)N2CCC[C@H]2C(=O)N(C)[C@H]2C/C(F)=C\CCN(C2=O)[C@@H](Cc2ccc(C)cc2)C(=O)N(C)CC(=O)N[C@@H](CCc2cc(F)c(C(F)(F)F)c(F)c2)C(=O)N2C[C@H](OCC)C[C@H]2C(=O)NC2(CCC2)C(=O)N(C)[C@@H](C2CCCC2)C(=O)N(C)[C@H](C(=O)N(C)C)CC(=O)N1C please.
3

====

target: UniProt P01116; test: Binding to KRAS by surface plasmon resonance (SPR), dissociation constant KD; settings: Single Cycle Kinetics, 1:1 binding model
Task for the reader: assign each of the following compounds its reported pKd.
Just the number, please; pKd means minus log10 of the concentration in mol/L.

Given the entry CCO[C@@H]1C[C@H]2C(=O)NC3(CCC3)C(=O)N(C)[C@@H](C3CCCC3)C(=O)N(C)[C@H](C)CC(=O)N(C)[C@@H](CC(C)C)C(=O)N[C@@H]([C@@H](C)CC)C(=O)N(C)CC(=O)N(C)[C@H]3C/C=C\CCN(C3=O)[C@@H](Cc3ccc(F)cc3)C(=O)N(C)CC(=O)N[C@@H](CCc3cc(F)c(C(F)(F)F)c(F)c3)C(=O)N2C1 [PP1494] , report its measured pKd.
9.24

Given the entry CCO[C@@H]1C[C@H]2C(=O)NC3(CCC3)C(=O)N(C)[C@@H](C3CCCC3)C(=O)N(C)[C@H](C(=O)N(C)C)CC(=O)N(C)[C@@H](CC3CC3)C(=O)N[C@@H]([C@@H](C)CC)C(=O)N(C)CC(=O)N(C)[C@H]3C/C=C\CCN(C3=O)[C@@H](Cc3ccc(F)cc3C)C(=O)N(C)CC(=O)N[C@@H](CCc3ccc(Cl)c(Cl)c3)C(=O)N2C1 [PP1476] , report its measured pKd.
9.00

Given the entry CC[C@H](C)[C@@H]1NC(=O)[C@H](C2CC2)N(C)C(=O)C[C@@H](C(=O)N(C)CC)N(C)C(=O)[C@H](C2CCCC2)N(C)C(=O)C2(CC(C)(C)C2)NC(=O)[C@@H]2C[C@H](C)CN2C(=O)[C@H](CCc2cc(F)c(C(F)(F)F)c(F)c2)NC(=O)CN(C)C(=O)[C@H](Cc2ccc(C(F)(F)F)cc2)N2CC/C=C\C[C@@H](C2=O)N(C)C(=O)CN(C)C1=O [PP1980] , report its measured pKd.
9.44

====

biological target: GDP-bound KRAS wild-type protein (Homo sapiens); assay: Binding to KRAS by surface plasmon resonance (SPR), dissociation constant KD; conditions: 1:1 binding model
Sequence (P01116 1-188 isoform P01116-2): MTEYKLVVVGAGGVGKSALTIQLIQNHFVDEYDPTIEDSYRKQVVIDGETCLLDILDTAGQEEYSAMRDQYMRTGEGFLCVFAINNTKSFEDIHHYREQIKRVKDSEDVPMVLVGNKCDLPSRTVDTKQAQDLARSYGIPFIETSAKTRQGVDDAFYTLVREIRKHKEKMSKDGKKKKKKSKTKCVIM
PARAMETER_MEASURED: pKd
Just the number, please; pKd means minus log10 of the concentration in mol/L.

Given the entry CCC[C@H]1C(=O)N[C@@H]([C@@H](C)CC)C(=O)N(C)CC(=O)N(C)[C@H]2C/C=C\CCN(C2=O)[C@@H](Cc2ccc(C)cc2)C(=O)N(C)CC(=O)N[C@@H](CCc2cc(Cl)c3sccc3c2)C(=O)N2C[C@H](OCC)C[C@H]2C(=O)NC2(CC(C)(C)C2)C(=O)N(C)[C@@H](C2CCCC2)C(=O)N(C)[C@H](C(=O)N(C)C)CC(=O)N1C [PP2947] , report its measured pKd.
9.92

Given the entry CCO[C@@H]1C[C@H]2C(=O)NC3(CC(C)(C)C3)C(=O)N(C)[C@@H](C3CCCC3)C(=O)N(C)[C@H](C(=O)N(C)CC)CC(=O)N(C)[C@@H]([C@@H](C)OC)C(=O)N[C@@H]([C@@H](C)CC)C(=O)N(C3CC3)CC(=O)N(C)[C@H]3C/C=C\CCN(C3=O)[C@@H](Cc3ccc(C)cc3)C(=O)N(C)CC(=O)N[C@@H](CCc3ccc(C(F)(F)F)c(OC)c3)C(=O)N2C1 [PP3182] , report its measured pKd.
9.06

Given the entry CCC[C@H]1C(=O)N[C@@H]([C@@H](C)CC)C(=O)N(C)CC(=O)N(C)[C@H]2C/C=C\CCN(C2=O)[C@@H](Cc2ccc(C)cc2)C(=O)N(C)CC(=O)N[C@@H](CCc2cc(F)c(C(F)(F)F)c(F)c2)C(=O)N2C[C@H](OCC)C[C@H]2C(=O)NC2(CC(C)(C)C2)C(=O)N(C)[C@@H](CC2CCC2)C(=O)N(C)[C@H](C(=O)N(C)C)CC(=O)N1C [PP2751] , report its measured pKd.
9.07

These entries and their values trace back to patent EP4603105A1.
